FYI, the data here is from ChEMBL document CHEMBL2062435.

compounds and their reported log10(MIC)
Test system: Escherichia coli
Assay: Antimicrobial activity against Escherichia coli ATCC 25922 after 18-24 hrs by two-fold serial dilution method
Format: functional
Scale type: logarithmic (base 10). Underlying MIC unit: µg/mL.

Below, each entry is followed by its recorded log10(MIC) result.
# compound, log10(MIC)
records = [
    ("COc1cc(CO/N=C2\\CN(c3nc4c(cc3F)c(=O)c(C(=O)O)cn4C3CC3)CC2CN)c([N+](=O)[O-])cc1OC.CS(=O)(=O)O (racemic)", -0.60),
    ("CS(=O)(=O)O.NCC1CN(c2nc3c(cc2F)c(=O)c(C(=O)O)cn3C2CC2)C/C1=N\\OCc1cc2c(cc1Cl)OCO2 (racemic)", -0.60),
    ("COc1cc(CO/N=C2\\CN(c3nc4c(cc3F)c(=O)c(C(=O)O)cn4C3CC3)CC2CN)cc(Cl)c1OC.CS(=O)(=O)O (racemic)", -1.82),
    ("COc1ccc(CO/N=C2\\CN(c3nc4c(cc3F)c(=O)c(C(=O)O)cn4C3CC3)CC2CN)c(OC)c1OC.CS(=O)(=O)O (racemic)", -1.52),
]

QUERY: # input compound: COc1cc(CO/N=C2\CN(c3nc4c(cc3F)c(=O)c(C(=O)O)cn4C3CC3)CC2CN)ccc1OC(F)F.CS(=O)(=O)O (racemic) ; wanted: its log10(MIC)
RESULT: -1.22

QUERY: # input compound: CS(=O)(=O)O.NCC1CN(c2nc3c(cc2F)c(=O)c(C(=O)O)cn3C2CC2)C/C1=N\OCc1ccc2c(c1)OCO2 (racemic) ; wanted: its log10(MIC)
RESULT: -0.90

---

System: Staphylococcus aureus
Assay: Antimicrobial activity against Staphylococcus aureus ATCC […] after 18-24 hrs by two-fold serial dilution method
Type: functional
compounds and their reported MIC
Number only, in µg/mL; omit the unit.

# compound, target desc, quantitative readout
data = [
    ("CS(=O)(=O)O.Cc1ccc(CO/N=C2\\CN(c3nc4c(cc3F)c(=O)c(C(=O)O)cn4C3CC3)CC2CN)cc1C (racemic)", "Staphylococcus aureus", 0.008),
    ("COc1cccc(CO/N=C2\\CN(c3nc4c(cc3F)c(=O)c(C(=O)O)cn4C3CC3)CC2CN)c1OC.CS(=O)(=O)O (racemic)", "Staphylococcus aureus", 0.015),
]

QUERY: # input compound: COc1cc(CO/N=C2\CN(c3nc4c(cc3F)c(=O)c(C(=O)O)cn4C3CC3)CC2CN)cc(OC)c1OC.CS(=O)(=O)O (racemic) ; wanted: its MIC
RESULT: 0.125

QUERY: # input compound: COc1cc(CO/N=C2\CN(c3nc4c(cc3F)c(=O)c(C(=O)O)cn4C3CC3)CC2CN)c([N+](=O)[O-])cc1OC.CS(=O)(=O)O (racemic) ; wanted: its MIC
RESULT: 0.015

QUERY: # input compound: CO/N=C1\CN(c2nc3c(cc2F)c(=O)c(C(=O)O)cn3C2CC2)CC1CN (centres undefined) ; wanted: its MIC
RESULT: 0.06

QUERY: # input compound: CS(=O)(=O)O.NCC1CN(c2nc3c(cc2F)c(=O)c(C(=O)O)cn3C2CC2)C/C1=N\OCc1ccc2c(c1)OCCO2 (racemic) ; wanted: its MIC
RESULT: 0.06
